- experimental_target: Ouabain sensitive dog kidney Na^+/K^+ ATPase (Canis lupus familiaris, UniProt P50997)
- Construct: Ouabain sensitive dog kidney Na^+/K^+ ATPase was obtained from Sigma (Shanghai, China); purchased Sigma (Shanghai, China); host or cells: dog kidney (tissue-derived enzyme preparation)
- experimental_details: Assay of Na+/K+ ATPase activity (released inorganic phosphate, absorbance at 660 nm)
- Format: biochemical
- run_conditions: 0.02 units enzyme, 3 mM ATP, pH 7.3, 37 °C, 20 min, 5% DMSO; read-out: IC50, inhibitory activity on Na^+/K^+ ATPase
readout: IC50 (µM)
// note: answer is a bare numeric in µM

Enquiry: For Ouabain sensitive dog kidney Na^+/K^+ ATPase (Canis lupus familiaris, UniProt P50997), give IC50 of the listed molecule: CC1CCC2(OC1)OC1CC3C4CC(=O)C5CC(OC6OC(CO)C(O)C(O)C6OC6OC(C)C(O)C(O)C6O)CCC5(C)C4CCC3(C)C1C2C (stereo not shown)
Return: 73
